# assay remarks: Aqueous solubility of the compound incubated for 12 hrs by UV-Vis spectrophotometry
# Type: physicochemical
# conditions used: buffer
recorded endpoint: solubility at 12 h

Consider the following illustrative entries.
chemical smiles: C=C[C@]1(C)C[C@@H](OC(=O)CSc2nc3cc[n+](Cc4ccc(Br)cc4)cc3s2)[C@]2(C)[C@H](C)CC[C@]3(CCC(=O)[C@H]32)[C@@H](C)[C@@H]1O.[Br-]
recorded endpoint: solubility at 12 h
result: 344 µg/mL
//
chemical smiles: C=C[C@]1(C)C[C@@H](OC(=O)CSc2nc3cc[n+](Cc4ccc(C)cc4)cc3[nH]2)[C@]2(C)[C@H](C)CC[C@]3(CCC(=O)[C@H]32)[C@@H](C)[C@@H]1O.[Br-]
recorded endpoint: solubility at 12 h
result: 573 µg/mL
//
chemical smiles: C=C[C@]1(C)C[C@@H](OC(=O)CSc2nc3cc[n+](Cc4ccc(C(C)(C)C)cc4)cc3s2)[C@]2(C)[C@H](C)CC[C@]3(CCC(=O)[C@H]32)[C@@H](C)[C@@H]1O.[Br-]
recorded endpoint: solubility at 12 h
result: 453 µg/mL
//
chemical smiles: Br.C=C[C@]1(C)C[C@@H](OC(=O)CSc2nc3cc[n+](Cc4ccc([N+](=O)[O-])cc4)cc3s2)[C@]2(C)[C@H](C)CC[C@]3(CCC(=O)[C@H]32)[C@@H](C)[C@@H]1O
recorded endpoint: solubility at 12 h
result: 648 µg/mL
//
chemical smiles: C=C[C@]1(C)C[C@@H](OC(=O)CSc2nc3cc[n+](Cc4cc(F)ccc4C#N)cc3[nH]2)[C@]2(C)[C@H](C)CC[C@]3(CCC(=O)[C@H]32)[C@@H](C)[C@@H]1O.[Br-]
recorded endpoint: solubility at 12 h
result: 91.8 µg/mL
//
chemical smiles: C=C[C@]1(C)C[C@@H](OC(=O)CSc2nc3cc[n+](Cc4ccc(F)cc4)cc3[nH]2)[C@]2(C)[C@H](C)CC[C@]3(CCC(=O)[C@H]32)[C@@H](C)[C@@H]1O.[Br-]
recorded endpoint: solubility at 12 h
result: 159 µg/mL

Record solubility at 12 h for all entries; do not skip any.
1. C=C[C@]1(C)C[C@@H](OC(=O)CSc2nc3cc[n+](Cc4ccc(F)cc4)cc3s2)[C@]2(C)[C@H](C)CC[C@]3(CCC(=O)[C@H]32)[C@@H](C)[C@@H]1O.[Br-]
2. C=C[C@]1(C)C[C@@H](OC(=O)CSc2nc3cc[n+](Cc4ccc(-c5ccccc5)cc4)cc3[nH]2)[C@]2(C)[C@H](C)CC[C@]3(CCC(=O)[C@H]32)[C@@H](C)[C@@H]1O.[Br-]

["395 µg/mL", "367 µg/mL"]

* * *

Could you please report measured MIC for the items listed next?
# Tested on: Staphylococcus aureus
# assay remarks: Antibacterial activity against methicillin-resistant Staphylococcus aureus 171 assessed as inhibition of bacterial growth incubated for 24 hrs by broth microdilution method
# Type: functional
Numbers only, in µg/mL.

chemical smiles: C=C[C@]1(C)C[C@@H](OC(=O)CSc2nc3cc[n+](Cc4ccc(C)cc4)cc3[nH]2)[C@]2(C)[C@H](C)CC[C@]3(CCC(=O)[C@H]32)[C@@H](C)[C@@H]1O.[Br-]
MIC, µg/mL: 4
--
chemical smiles: C=C[C@]1(C)C[C@@H](OC(=O)CSc2nc3cc[n+](Cc4ccc(C#N)cc4)cc3[nH]2)[C@]2(C)[C@H](C)CC[C@]3(CCC(=O)[C@H]32)[C@@H](C)[C@@H]1O.[Br-]
MIC, µg/mL: 16
--
chemical smiles: C=C[C@]1(C)C[C@@H](OC(=O)CS[C@@H]2C[C@H]3CC[C@@H](C2)N3C)[C@]2(C)[C@H](C)CC[C@]3(CCC(=O)[C@H]32)[C@@H](C)[C@@H]1O
MIC, µg/mL: 128

Record MIC for all entries; do not skip any.
1. C=C[C@]1(C)C[C@@H](OC(=O)CSc2nc3cc[n+](Cc4ccc(C)cc4)cc3s2)[C@]2(C)[C@H](C)CC[C@]3(CCC(=O)[C@H]32)[C@@H](C)[C@@H]1O.[Br-]
2. C=C[C@]1(C)C[C@@H](OC(=O)CSc2nc3cc[n+](Cc4ccc(C#N)cc4)cc3s2)[C@]2(C)[C@H](C)CC[C@]3(CCC(=O)[C@H]32)[C@@H](C)[C@@H]1O.[Br-]

1. 8
2. 16

* * *

# Tested on: Enterococcus
# assay remarks: Antibacterial activity against vancomycin-resistant Enterococcus 80 assessed as inhibition of bacterial growth incubated for 24 hrs by broth microdilution method
# Type: functional
Could you please report measured log10(MIC) for the items listed next?
Values below are the log10 of the recorded MIC, with µg/mL as the unit.

Consider the following illustrative entries.
chemical smiles: C=C[C@]1(C)C[C@@H](OC(=O)CSc2nc3cc[n+](Cc4ccc(C)cc4)cc3s2)[C@]2(C)[C@H](C)CC[C@]3(CCC(=O)[C@H]32)[C@@H](C)[C@@H]1O.[Br-]
recorded endpoint: log10(MIC)
number: 0.90
//
chemical smiles: C=C[C@]1(C)C[C@@H](OC(=O)CSc2nc3cc[n+](Cc4ccc(C#N)cc4)cc3[nH]2)[C@]2(C)[C@H](C)CC[C@]3(CCC(=O)[C@H]32)[C@@H](C)[C@@H]1O.[Br-]
recorded endpoint: log10(MIC)
number: 0.30
//
chemical smiles: C=C[C@]1(C)C[C@@H](OC(=O)CSC(C)(C)CNC(=O)[C@H](N)C(C)C)[C@]2(C)[C@H](C)CC[C@]3(CCC(=O)[C@H]32)[C@@H](C)[C@@H]1O
recorded endpoint: log10(MIC)
number: 1.81
//
chemical smiles: C=C[C@]1(C)C[C@@H](OC(=O)CSc2nc3cc[n+](Cc4ccc(C)cc4)cc3[nH]2)[C@]2(C)[C@H](C)CC[C@]3(CCC(=O)[C@H]32)[C@@H](C)[C@@H]1O.[Br-]
recorded endpoint: log10(MIC)
number: 0.60

The record that follows has no log10(MIC) shown yet.
Looking up "C=C[C@]1(C)C[C@@H](OC(=O)CSc2nc3cc[n+](Cc4ccc(C#N)cc4)cc3s2)[C@]2(C)[C@H](C)CC[C@]3(CCC(=O)[C@H]32)[C@@H](C)[C@@H]1O.[Br-]" , I see its log10(MIC) listed as 1.20

* * *

# assay remarks: Observed apparent oral clearance in Sprague-Dawley rat at 10 mg/kg, po
# Assay type: ADME, organism-based
# conditions used: in vivo
recorded endpoint: CL/F (mL/min/kg)
Answers are plain numbers, in mL/min/kg.

Looking up "C=C[C@]1(C)C[C@@H](OC(=O)CSc2nc3cc[n+](Cc4ccc(C)cc4)cc3[nH]2)[C@]2(C)[C@H](C)CC[C@]3(CCC(=O)[C@H]32)[C@@H](C)[C@@H]1O.[Br-]" , I see its CL/F listed as 10.5

* * *

# assay remarks: Observed apparent volume of distribution during terminal phase in Sprague-Dawley rat at 10 mg/kg, po
# Type: ADME, organism-based
# conditions used: in vivo, read-out: Vz/F_obs
recorded endpoint: Vd/F (L/kg)
Give bare numbers, in L/kg.

Looking up "C=C[C@]1(C)C[C@@H](OC(=O)CSc2nc3cc[n+](Cc4ccc(C)cc4)cc3[nH]2)[C@]2(C)[C@H](C)CC[C@]3(CCC(=O)[C@H]32)[C@@H](C)[C@@H]1O.[Br-]" , I see its Vd/F listed as 1.43

* * *

# System: Staphylococcus aureus
# assay remarks: Antibacterial activity against methicillin-resistant Staphylococcus aureus 575 assessed as inhibition of bacterial growth incubated for 24 hrs by broth microdilution method
# Assay type: functional
Could you please report measured MIC for the items listed next?
Give bare numbers, in µg/mL.

Consider the following illustrative entries.
chemical smiles: C=C[C@]1(C)C[C@@H](OC(=O)CSc2nc3cc[n+](Cc4ccc(C#N)cc4)cc3[nH]2)[C@]2(C)[C@H](C)CC[C@]3(CCC(=O)[C@H]32)[C@@H](C)[C@@H]1O.[Br-]
unit string: µg/mL
MIC: 32
--
chemical smiles: C=C[C@]1(C)C[C@@H](OC(=O)CSc2nc3cc[n+](Cc4ccc(C#N)cc4)cc3s2)[C@]2(C)[C@H](C)CC[C@]3(CCC(=O)[C@H]32)[C@@H](C)[C@@H]1O.[Br-]
unit string: µg/mL
MIC: 32
--
chemical smiles: C=C[C@]1(C)C[C@@H](OC(=O)CSc2nc3cc[n+](Cc4ccc(C)cc4)cc3s2)[C@]2(C)[C@H](C)CC[C@]3(CCC(=O)[C@H]32)[C@@H](C)[C@@H]1O.[Br-]
unit string: µg/mL
MIC: 4

Record MIC for all entries; do not skip any.
1. C=C[C@]1(C)C[C@@H](OC(=O)CS[C@@H]2C[C@H]3CC[C@@H](C2)N3C)[C@]2(C)[C@H](C)CC[C@]3(CCC(=O)[C@H]32)[C@@H](C)[C@@H]1O
2. C=C[C@]1(C)C[C@@H](OC(=O)CSc2nc3cc[n+](Cc4ccc(C)cc4)cc3[nH]2)[C@]2(C)[C@H](C)CC[C@]3(CCC(=O)[C@H]32)[C@@H](C)[C@@H]1O.[Br-]
3. C=C[C@]1(C)C[C@@H](OC(=O)CSC(C)(C)CNC(=O)[C@H](N)C(C)C)[C@]2(C)[C@H](C)CC[C@]3(CCC(=O)[C@H]32)[C@@H](C)[C@@H]1O

1: 32; 2: 1; 3: 128

Every entry's value here was drawn from ChEMBL document CHEMBL6096719.
